Target: T1, MPDZ_12, O75970
T1 sequence (O75970 1857-1958, limits assumed, looked up): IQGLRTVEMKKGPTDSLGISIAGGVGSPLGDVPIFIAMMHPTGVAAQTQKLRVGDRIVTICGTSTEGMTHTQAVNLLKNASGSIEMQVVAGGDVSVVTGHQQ
Assay: holdup assay
Parameters: key: below the threshold = too weak to quantify, mostly under pKd 3.1 to 4
Settings: plain residues with an end cap or a label only (N-terminal biotin on a linker: ado-ado)
readout-label: pKd

binder: ILRKSTTTTV [PRR16, Q569H4]
observed: below the threshold
--
binder: EKCGKEFSEF [PRKACA, P17612]
observed: below the threshold
--
binder: QLSFNTDTLC [ABCA2, Q9BZC7]
observed: below the threshold
--
binder: QKAPTKEFYA [SDC2, P34741]
observed: 3.5

Source listed as paper PMC9482650.
